# target-system: T1, GLP-1R (INS1e assay) (UniProt P32301 22-463, limits assumed)
# T1 sequence (looked up): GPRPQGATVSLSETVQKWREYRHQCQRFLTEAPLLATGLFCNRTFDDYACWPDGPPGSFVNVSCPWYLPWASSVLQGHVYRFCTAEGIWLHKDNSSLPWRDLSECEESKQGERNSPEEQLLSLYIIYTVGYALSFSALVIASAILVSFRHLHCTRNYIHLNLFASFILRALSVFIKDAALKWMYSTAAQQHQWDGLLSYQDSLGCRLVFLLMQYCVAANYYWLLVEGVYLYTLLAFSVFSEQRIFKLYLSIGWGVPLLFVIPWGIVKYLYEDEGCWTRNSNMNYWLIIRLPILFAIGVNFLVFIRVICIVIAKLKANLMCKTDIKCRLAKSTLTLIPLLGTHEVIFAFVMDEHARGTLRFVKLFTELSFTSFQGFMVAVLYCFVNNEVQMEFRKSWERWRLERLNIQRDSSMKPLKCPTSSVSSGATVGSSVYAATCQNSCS
# test-protocol: cell-based or functional assay
Starred links: 1 amine or outer side, 2 acyl side, 3 side chain; linkers in the order of their positions; H or OH if unused. Non-standard residues stand in square brackets, D forms with d. Groups on a side chain read outwards from the residue. Primed or numbered codes have the meaning given here. No end group written: not given here. *: point of attachment. γGlu = O=C(O)[C@H](CCC(=O)[*:2])N[*:1]; Stearoyl = CCCCCCCCCCCCCCCCCC(=O)*; αMeF = C[C@](N)(Cc1ccccc1)C(=O)O; αMeK = C[C@](N)(CCCCN)C(=O)O; Lauroyl = CCCCCCCCCCCC(=O)*; αMeS = C[C@](N)(CO)C(=O)O; PEG2′ = not defined here; Aib = CC(C)(N)C(=O)O
readout-label: INS1e assay EC50 GLP-1 R n1 (nM)

[1] H[Aib]EGS[αMeF]TSDV[αMeS]S[αMeF]LEGEAAK([PEG2′-PEG2′-PEG2′-Lauroyl])E[αMeF]IA[αMeF]VV[αMeK]GG-NH2 [SEQ ID NO 136]
[2] H[Aib]EGS[αMeF]TSDV[αMeS]S[αMeF]LEGEAA[αMeK]EFIK([PEG2′-PEG2′-γGlu-Stearoyl])WVVEGG-NH2 [SEQ ID NO 68]
Short answer wanted: higher INS1e assay EC50 GLP-1 R n1, 1 or 2 ? Answer = label.
2
(2: 2.69 nM, 1: 0.0526 nM)
